Molecular target: Cytochrome P450 2D6 (Homo sapiens)
Experiment: Cytochrome panel assay with activity outcomes
Conditions: recombinant CYP, pro-luciferin dealkylation, luminescence, p450-cyp2d6; series mostly up to 57.1 µM
The whole screen tested about 16,000 compounds, of which about 2,600 (16%) were called active. Inconclusive results (about 20%) are left out. The list is a sample of the results.
PROPERTY MEASURED: AC50

Below, each entry is followed by its recorded AC50 result.
COMPOUND | AC50
CNCCC=C1c2ccccc2C=Cc2ccccc21 | 5.01 µM (active)
Cc1ccc2nc(SCC(=O)c3ccc4c(c3)OCO4)[nH]c2c1 | 4.47 µM (active)
C(=N\Nc1nc(Nc2ccccc2)nc(N2CCOCC2)n1)/c1c[nH]c2ccccc12 | inactive
COC(=O)c1[nH]c(C)c(/C(O)=C2\C(=O)C(=O)N(CCN(C)C)C2c2cccs2)c1C (centres undefined) | inactive
CN(C)CCNC(=S)Nc1cccc(Cl)c1 | inactive

What the record says about COc1cccc(/C(O)=C2/C(=O)C(=O)N(c3cc(C)on3)C2c2cccs2)c1 (centres undefined) : AC50 is inactive

Sure, the documented AC50 for Cc1ccc(NCCC(=O)c2ccc(Cl)cc2)cc1C is inactive

// NCCCCN : AC50 value = inactive

// AC50 value for O=C1OCc2cccc3cccc1c23 : inactive

Given item Cc1ccc(NC(=S)NCCN2CCOCC2)cc1C , the value recorded as its AC50 is inactive

----------
Target: Cytochrome P450 2D6 (Homo sapiens)
Test: Cytochrome panel assay with activity outcomes
Settings: recombinant CYP, pro-luciferin dealkylation, luminescence, p450-cyp2d6; series mostly up to 57.1 µM
The campaign covered roughly 16,000 compounds. About 2,600 (16%) were called active. Roughly 20% stayed inconclusive and do not appear here. The list is a sample of the results.
PROPERTY MEASURED: AC50

Record excerpt, results attached:
COMPOUND | PROPERTY MEASURED | RESULT
CCOC(=O)c1c(C)oc2c1cc(O)c1ccccc12 | AC50 | inactive
CCOC(=O)C1=C(C)NC2=C(C(=O)C(C(=O)OCC)C(c3ccc(OC)cc3)C2)C1c1ccccn1 (stereo not drawn) | AC50 | inactive
Cc1nc2cnc(Oc3cccc(Cl)c3)nc2n(C2CC2)c1=O | AC50 | inactive
Nc1ccc2c3c(cccc13)C(=O)NC2=O | AC50 | inactive
Cc1cccc(/C=N\Nc2cn[nH]c(=O)c2Cl)c1 | AC50 | inactive
COc1cc([C@H]2c3cc4c(cc3[C@@H](O)[C@@H]3COC(=O)[C@H]23)OCO4)cc(OC)c1OC | AC50 | inactive
COc1ncc2nc(-c3cccs3)c(=O)n(C)c2n1 | AC50 | inactive
C/C(O)=C\c1nc2ccccc2oc1=O | AC50 | inactive

COC(=O)Nc1nc2ccc(C(=O)c3cccs3)cc2[nH]1 yielded AC50 of inactive

Summary for this compound, CC1(C)CC2(CC(c3cccs3)c3cc(Cl)c(O)cc3O2)NC(=S)N1 (stereo not drawn) : AC50 is inactive

# compound O=S1(=O)C=C(Oc2ccc3ccccc3c2)c2ccccc21 ; its AC50 = inactive

The recorded AC50 for entry COC(=O)[C@H]1C[C@@H]1[C@H](NC(=O)OCc1ccccc1)c1ccccc1 equals inactive

The reported AC50 of the compound CC(=O)NCCNc1ncncc1-c1ccccc1C was inactive

According to the records, this compound CCC(C)NS(=O)(=O)c1ccc(NC(=O)CCC2CCCCC2)cc1 (stereo not drawn) displays AC50 of inactive

Measured AC50, Cc1nc2cnc(N(C)C)nc2n(C)c1=O : inactive

Measured AC50 of Cc1ccc(SCCNC(=S)Nc2ccc(C)c(C)c2)cc1 : 4.47 µM (active)

// AC50 lookup, compound = O=C1CC(c2ccc(F)cc2)Cc2nc(NCC3CCCO3)ncc21 (stereo not drawn) , result: inactive

Field AC50 (entry Cc1cnc(CNc2ncncc2-c2c(C)noc2C)cn1 ) reads inactive

AC50 recorded for this compound, COc1ccc(Nc2cc(C(=O)NCCCN3CCN(C)CC3)c3ccccc3n2)cc1 , is inactive

Note to self: AC50 recorded for Cc1c(C#N)c(=O)oc2ccc3ccccc3c12 was inactive

Kindly note the recorded AC50 for CSC1=N/C(=C\c2ccc3c(c2)OCO3)C(=O)S1 , which is inactive

Input FC(F)(F)c1ccccc1-c1cncnc1NCc1cccs1 . Output AC50: 15.8 µM (active)

The recorded AC50 for entry COc1ccc(Nc2nc(N3CCCCC3)c3ccccc3n2)cc1 equals 1.58 µM (active)

Value of measured AC50 for the entry COc1ccc(/C=C2\CCCC3C2=NN(C(=O)c2ccco2)C3c2ccc(OC)c(OC)c2)cc1OC (stereo not drawn) : inactive

Looking up COc1ccccc1-c1cncnc1NCc1cccs1 , I see its AC50 listed as 15.8 µM (active)

Entry COc1ccccc1NC(=O)N1CCC(c2nnc(SCC(N)=O)n2C)CC1 ; AC50 = inactive

Measured AC50 of N[C@](CC1c2ccccc2Oc2ccccc21)(C(=O)O)[C@@H]1C[C@@H]1C(=O)O : inactive

----------
Target: Cytochrome P450 2D6 (Homo sapiens) (UniProt P10635)
Sequence (P10635 whole entry, looked up): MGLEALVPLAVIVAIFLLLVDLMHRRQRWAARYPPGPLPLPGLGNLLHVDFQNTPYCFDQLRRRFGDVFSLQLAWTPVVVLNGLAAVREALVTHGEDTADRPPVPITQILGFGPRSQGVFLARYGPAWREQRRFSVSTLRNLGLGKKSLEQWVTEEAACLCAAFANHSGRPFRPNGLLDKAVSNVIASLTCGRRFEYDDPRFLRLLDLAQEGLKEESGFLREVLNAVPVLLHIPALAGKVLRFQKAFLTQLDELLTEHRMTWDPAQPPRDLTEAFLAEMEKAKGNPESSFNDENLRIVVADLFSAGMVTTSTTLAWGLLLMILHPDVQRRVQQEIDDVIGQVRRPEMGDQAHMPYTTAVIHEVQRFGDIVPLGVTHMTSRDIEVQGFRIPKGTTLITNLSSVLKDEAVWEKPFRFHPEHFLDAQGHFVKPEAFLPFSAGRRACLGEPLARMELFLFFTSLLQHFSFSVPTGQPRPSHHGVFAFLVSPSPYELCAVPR
Assay: Cytochrome panel assay with activity outcomes
Settings: recombinant CYP, pro-luciferin dealkylation, luminescence, p450-cyp2d6; series mostly up to 57.1 µM
In all, about 16,000 compounds went through this assay and about 2,600 (16%) were called active. Another 20% or so got no clear call; they are omitted. Calls come from the whole dose curve; as a rule, active = well fitted curve in the direction sought with a large enough effect; inconclusive = small, poorly fitted or top-dose-only effect, or effect the other way; inactive = no such curve, though single readings can be large or run the other way. Only a sample is shown.
Your answer must be one of the following: active, inactive

Known results for compounds:
COMPOUND | LABEL VALUE
COc1ccc(-c2nc3cnc(N(C)C)nc3n(CCc3ccccc3)c2=O)cc1 | inactive
Cc1ccccc1-c1nccc(NCc2cccnc2)n1 | active
CCN(CC)Cc1c(O)ccc2c(=O)c(Oc3ccccc3OC)coc12 | inactive
Cc1cccc(CNc2ccnc(-c3cccnc3)n2)c1 | active
COC(=O)c1cc(OC)c(OC)cc1NC(=O)CSc1ccccc1 | inactive

Outcome logged for CSc1nc(Oc2ccc(=O)[nH]n2)nc(N(C)C)n1 in this assay:
inactive

Would you mind telling me which call this test gave CN(C)c1ccc(-c2noc(C3CCN(S(=O)(=O)c4cccc(C(=O)O)c4)CC3)n2)cc1 ?
inactive

Please let me know the test result on file for CCNC(=O)CSc1nnc(C2CC2)n1-c1ccccc1 .
inactive

Which outcome was assigned to Cc1cccc(CNc2ccnc(-c3ccc(C(=O)N(C)C)cc3)n2)c1 in this test?
inactive

----------
Target: Cytochrome P450 2D6 (Homo sapiens) (UniProt P10635)
Experiment: Cytochrome panel assay with activity outcomes
Details: recombinant CYP, pro-luciferin dealkylation, luminescence, p450-cyp2d6; series mostly up to 57.1 µM
In all, about 16,000 compounds went through this assay and about 2,600 (16%) were called active. About 20% were inconclusive and are not listed. Calls come from the whole dose curve; as a rule, active = well fitted curve in the direction sought with a large enough effect; inconclusive = small, poorly fitted or top-dose-only effect, or effect the other way; inactive = no such curve, though single readings can be large or run the other way. Not all results are given here.
Return exactly one item of active, inactive

MOLECULE | ASSAYED TARGET | LABEL VALUE
COc1ccc(CNC(=O)c2csc(Cc3ccc(Cl)cc3)n2)cc1 | Cytochrome P450 2D6 (Homo sapiens) (UniProt P10635) | active

So what was the verdict on COC(=O)c1ccc(Oc2nc(N(C)C)nc(N3CCOCC3)n2)cc1 in this test?
inactive

Record lookup: outcome of this test for COc1ccc2c(c1)CCC1C2CC[C@]2(C)[C@H](NCCCCCCN3C(=O)C=CC3=O)CC[C@@H]12 (stereo not given in full) ?
inactive

Could you please tell me the result logged for CN(C)[C@H]1C(=O)C(C(=O)NCN2CCCC2)=C(O)[C@]2(O)C(=O)C3=C(O)c4c(O)cccc4[C@@](C)(O)[C@H]3C[C@@H]12 in this assay?
inactive

Check the results log: what was the call for COC(=O)C1=C(NC(=O)c2cccs2)CCS1 ?
inactive

Dear all, I need the recorded test outcome for COc1ccc(CNC(=O)c2cnc(C)cn2)cc1 , thank you.
inactive

What is the recorded call for this molecule in the test? CCOC(=O)C1CCCN(C(=O)CCCOc2cc(=O)n(C)c3ccccc23)C1 (stereo not given)
inactive

----------
Molecular target: Cytochrome P450 2D6 (Homo sapiens) (UniProt P10635)
Experiment: Cytochrome panel assay with activity outcomes
Conditions: recombinant CYP, pro-luciferin dealkylation, luminescence, p450-cyp2d6; series mostly up to 57.1 µM
Screen size: about 16,000 compounds; about 2,600 (16%) were called active. About 20% were inconclusive and are not listed. The call rests on the fitted dose curve; in most records, active means well fitted curve in the direction sought with a large enough effect; inconclusive means small, poorly fitted or top-dose-only effect, or effect the other way; inactive means no such curve, though single readings can be large or run the other way. Not all results are given here.
Valid outcomes are listed here; reply with one: true (1) = active, false (0) = inactive

COMPOUND | ASSAYED TARGET | LABEL VALUE
Cc1cccc(CNc2ncncc2-c2cccc(NS(C)(=O)=O)c2)c1 | Cytochrome P450 2D6 (Homo sapiens) (UniProt P10635) | true (1)
O=C1CC(N2CCOCC2)C(=O)N1c1cccc(Cl)c1 (configuration not stated) | Cytochrome P450 2D6 (Homo sapiens) (UniProt P10635) | false (0)

Any idea what this test logged for COc1ccc(C(=O)Nc2ccc3c(c2)nc(CN2CCN(C(C)=O)CC2)n3C)cc1 ?
false (0)

What is the recorded call for this compound in the test? O=C(OC1CCN(c2ncc(C(F)(F)F)cc2Cl)CC1)c1cccc(C(F)(F)F)c1
false (0)

// param item: CSc1nc2ccccc2cc1/C=C(\C#N)c1ccccc1 ; yields the recorded call
false (0)

Returns: the outcome recorded for CNc1ncncc1-c1ccccc1OC in this assay.
false (0)

For CC1=CC(C)(C)Nc2ccc(CSc3ccccc3)cc21 , what call appears in the results of this test?
true (1)

Name the outcome recorded for CC(O)(P(=O)(O)O)P(=O)(O)O in the assay.
false (0)

Please indicate how the test categorized Cc1[nH]nc(N2CCCCCC2)c1[N+](=O)[O-] .
true (1)

Recorded test outcome, item Cc1cccc(NC(=O)c2cc(=O)c3ccccc3o2)n1
false (0)

Source listed as PubChem BioAssay AID1851.
